Catalogue of compounds with associated CC50
# protocolDescription: Cell Cytotoxicity Assays (MTS dye)
# Format: cell-based
# experimentalSetup: human, 50% inhibition value, 8 days, cell line not given
quantityKind: CC50

1) CNC(=O)c1c(-c2ccc(F)cc2)oc2cc(N(CCO[P@@](=O)(N[C@@H](C)C(=O)OC(C)C)Oc3ccccc3)S(C)(=O)=O)c(C3CC3)cc12: > 20 µM
2) COc1nc(N)nc2c1ncn2[C@@H]1O[C@H](COP(=O)(N[C@@H](C)C(=O)OCC(C)(C)C)Oc2cccc3ccccc23)[C@@H](O)[C@@]1(C)O (stereo partly drawn) [Compound 137a]: 0.93 µM
3) CC(C)OC(=O)[C@H](C)N[P@](=O)(OC[C@H]1O[C@@H](n2cnc3c(=O)[nH]c(N)nc32)[C@](C)(O)[C@@H]1O)Oc1ccccc1: > 20 µM
4) COc1nc(N)nc2c1ncn2[C@@H]1O[C@H](CO[P@@](=O)(N[C@@H](C)C(=O)OC(C)C)Oc2ccccc2)[C@@H](O)[C@@]1(C)F: > 20 µM
5) CC(C)OC(=O)[C@H](C)N[P@](=O)(OC[C@H]1O[C@@H](n2ccc3c(N)ncnc32)[C@](C)(O)[C@@H]1O)Oc1ccccc1: > 10 µM
6) COc1nc(N)nc2c1ncn2[C@@H]1O[C@H](CO[P@@](=O)(N[C@@H](C)C(=O)OC(C)C)Oc2ccccc2)[C@@H](O)[C@@]1(C)O: 4.14 µM
